Items are presented alongside their recorded GI50.
System: SK-MEL-5
Assay: NCI tumour cell line growth inhibition, 48 h
Calls of active or inactive are those of the source. No stated cut-off is given here; in the data, active = GI50 up to about 1.1 µM and inactive = higher.

Look over these answered cases.
- molecule: "CCCc1nc(N)nc(C(=O)Nc2cccc(C(F)(F)F)c2)c1CC"
  GI50: "> 100 µM (inactive)"
- molecule: "CN(C)c1ccc(-c2c(C#N)c(S)n(NS(=O)(=O)c3ccccc3)c(=O)c2C#N)cc1"
  GI50: "19.8 µM (inactive)"
- molecule: "COC1(CC[C@H](C)COC2OC(CO)C(O)C(O)C2O)O[C@H]2C[C@H]3[C@@H]4CC=C5C[C@@H](OC6OC(CO)C(OC7OC(C)C(O)C(O)C7O)C(O)C6OC6OC(C)C(O)C(O)C6O)CC[C@]5(C)[C@H]4CC[C@]3(C)[C@H]2[C@@H]1C (some centres undefined)"
  GI50: "4.98 µM (inactive)"
- molecule: "O=C1C=CC(=O)C2=C1[C@@H](O)C1CC=CC3C(=O)O[C@@H]2C31 (some centres undefined)"
  GI50: "20.6 µM (inactive)"
- molecule: "O=C1N[C@@H]2CCC[C@@H]2[C@@H]1c1ccc(Cl)cc1"
  GI50: "> 100 µM (inactive)"
- molecule: "O=c1[nH]c(=O)n(C/C=C/CBr)nc1Br"
  GI50: "13.2 µM (inactive)"

Query string: Sample COC(=O)NC(=O)c1cn(C2CCCCC2)c(=O)[nH]c1=O — what was its GI50?
Result string: > 100 µM (inactive)

Query string: # query: GI50 of entry CC(C)(C)C(=O)OCC1OC(N=[N+]=[N-])C(OC(=O)C(C)(C)C)C(OC(=O)C(C)(C)C)C1OC(=O)C(C)(C)C (centres undefined)
Result string: > 100 µM (inactive)

Query string: Given the entry CC(=O)Oc1ccc2c(=O)c(C(C)=O)coc2c1 , report its measured GI50.
Result string: > 100 µM (inactive)

Query string: For COc1cc2c(c(OC)c1OC)[C@@H]1CCCCC[C@@H]1CCC2=O , what is its reported GI50?
Result string: 57.5 µM (inactive)

Query string: State the recorded GI50 for this entry: c1ccc(NC2(c3nnnn3C3CCCCC3)CCNCC2)cc1
Result string: 19.5 µM (inactive)

Query string: So what's the measured GI50 for this one? CC(=O)OCC1OC(OCCCOP(=S)(OCCC#N)OCC2OC(n3ccc(N)nc3=O)C(OC(=O)c3ccccc3)C2OC(=O)c2ccccc2)C(OC(C)=O)C(OC(C)=O)C1OC(C)=O (centres undefined)
Result string: > 100 µM (inactive)

Query string: Give the measured GI50 of COc1cc(O)c2c(=O)cc(C3(OC(C)=O)C=CC(OC4OC(CO)C(O)C(O)C4O)C=C3)oc2c1 (centres undefined) .
Result string: > 100 µM (inactive)

Query string: So what does the record say about GI50 for Cc1ccc(C(=O)Nc2ccc(CP(=O)(O)O)cc2CP(=O)(O)O)cc1N ?
Result string: > 100 µM (inactive)

Query string: Quick one: GI50 of COc1ccc(/C=C2\C=Cc3ccccc32)cc1OC ?
Result string: 43.2 µM (inactive)

Query string: I am curious: what GI50 value has been reported for COC1(C)CP(=O)(OC(C)C)CC(C)=C1Cl (centres undefined) ?
Result string: 12.4 µM (inactive)

Query string: Record request: GI50 value, item Nc1ccnc2c1ncn2[C@H]1C[C@H](O)[C@@H](CO)O1
Result string: > 100 µM (inactive)

Query string: If you can, please state the reported GI50 value of COc1ccccc1CCN1CCN(CCCc2ccccc2)CC1 .
Result string: 22.1 µM (inactive)

Query string: Any idea what its GI50 is? The molecule is [O-][S+](Nc1ccccc1)c1cccc(Cl)c1 (centres undefined)
Result string: 42.8 µM (inactive)
